Kindly state viability, T/C for each of the entries shown.
System: 628569-122-R-J1-PDC complex spheroid viability
Test protocol: Anticancer human tumor 628569-122-R-J1-PDC patient-derived head and neck squamous carcinoma cell line growth inhibition [CLK]
Condition description: second compound 3.16 µM; first compound 0.01 µM; hits give low values
Dear colleague, please return just the value in %, with no unit written.

// viability, T/C lookup, compound = CCc1c2c(nc3ccc(O)cc13)-c1cc3c(c(=O)n1C2)COC(=O)[C@]3(O)CC + CN1CCN(c2cc(C(=O)Nc3cc4cc(-c5cnn(C)c5)ccc4cn3)ccn2)CC1 , result: 6.32

// viability, T/C lookup, compound = CCN1CCN(Cc2ccc(Nc3ncc(F)c(-c4cc(F)c5nc(C)n(C(C)C)c5c4)n3)nc2)CC1 + CN1CCN(c2cc(C(=O)Nc3cc4cc(-c5cnn(C)c5)ccc4cn3)ccn2)CC1 , result: 6.91

// viability, T/C lookup, compound = Cn1ncnc1[C@H]1c2n[nH]c(=O)c3cc(F)cc(c23)N[C@@H]1c1ccc(F)cc1 + CNC(=O)c1ccc(Nc2nc(OC3CCCC3)c3c(-c4ccc5nc(C)oc5c4)c[nH]c3n2)c(OC)c1 , result: 41.5

// viability, T/C lookup, compound = CCc1c2c(nc3ccc(O)cc13)-c1cc3c(c(=O)n1C2)COC(=O)[C@]3(O)CC + CNC(=O)c1ccc(Nc2nc(OC3CCCC3)c3c(-c4ccc5nc(C)oc5c4)c[nH]c3n2)c(OC)c1 , result: 40

// viability, T/C lookup, compound = COc1c(OCCCN2CCOCC2)ccc2c3n(c(=NC(=O)c4cnc(N)nc4)nc12)CCN3 + CNC(=O)c1ccc(Nc2nc(OC3CCCC3)c3c(-c4ccc5nc(C)oc5c4)c[nH]c3n2)c(OC)c1 , result: 34.7

* * *

Test system: 628569-122-R-J1-PDC complex spheroid viability
Test protocol: Anticancer human tumor 628569-122-R-J1-PDC cell line growth inhibition [CLK];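 further: spheroids exposed to agents for seven days before readout; 100% = DMSO vehicle control viability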
Condition description: second compound 0.316 µM; first compound 0.0316 µM; hits give low values
Measured parameter: viability, T/C (%)
Dear colleague, please return just the value in %, with no unit written.

Form field, viability, T/C with 628569-122-R-J1-PDC complex spheroid viability, item CC1(C)CCC(CN2CCN(c3ccc(C(=O)NS(=O)(=O)c4ccc(NCC5CCOCC5)c([N+](=O)[O-])c4)c(Oc4cnc5[nH]ccc5c4)c3)CC2)=C(c2ccc(Cl)cc2)C1 + CNC(=O)c1ccc(Nc2nc(OC3CCCC3)c3c(-c4ccc5nc(C)oc5c4)c[nH]c3n2)c(OC)c1 : 52.7

Form field, viability, T/C with 628569-122-R-J1-PDC complex spheroid viability, item CC(Nc1ccc2c(c1)OCCn1cc(N3C(=O)OCC3C(F)F)nc1-2)C(N)=O (centres undefined) + CN1CCN(c2cc(C(=O)Nc3cc4cc(-c5cnn(C)c5)ccc4cn3)ccn2)CC1 : 26.9

Form field, viability, T/C with 628569-122-R-J1-PDC complex spheroid viability, item CC1COCCN1c1cc(C2(S(C)(=N)=O)CC2)nc(-c2ccnc3[nH]ccc23)n1 (centres undefined) + CN1CCN(c2cc(C(=O)Nc3cc4cc(-c5cnn(C)c5)ccc4cn3)ccn2)CC1 : 34.3

Form field, viability, T/C with 628569-122-R-J1-PDC complex spheroid viability, item CC(CO)NC(=O)c1cc(-c2ccc(Cl)cc2)nn(-c2cnn(C)c2)c1=O (centres undefined) + CN1CCN(c2cc(C(=O)Nc3cc4cc(-c5cnn(C)c5)ccc4cn3)ccn2)CC1 : 62.6

Reference source for all entries: PubChem BioAssay AID2060611
